Assay: AUC (0 to 6 hrs) in Sprague-Dawley rat at 10 mg/kg, po
Format: ADME, organism-based
Parameters: time < 6 hr, dose 10 mg/kg, route oral
Conditions: plasma
parameter_measured: AUC(0-t) at 6 h (µM·h)

O=C(O)c1c(-c2ccc[nH]c2=O)c2c3occc3c(F)cc2n1Cc1cc2cn[nH]c2cc1F	9.3
Nc1n[nH]c2cc(F)c(Cn3c(C(=O)O)c(-c4ccc[nH]c4=O)c4c5occc5c(F)cc43)cc12	2.1

[P] Nc1n[nH]c2cc(Cn3c(C(=O)O)c(-c4ccc[nH]c4=O)c4c5occc5c(F)cc43)c(F)cc12
[Q] NC(=O)c1ccc(F)c(Cn2c(C(=O)O)c(-c3ccc[nH]c3=O)c3c4occc4c(F)cc32)c1
Enquiry: Could you tell me which of P and Q has the lower AUC(0-t) at 6 h reading? I would appreciate it if you answered with the label of your choice.
Return: Q
(Q: 1.7 µM·h, P: 3.6 µM·h)

[A] O=C(O)c1c(-c2ccc[nH]c2=O)c2c3occc3c(F)cc2n1Cc1cc2[nH]cnc2cc1Cl
[B] Cc1cc2[nH]ncc2cc1Cn1c(C(=O)O)c(-c2ccc[nH]c2=O)c2c3occc3c(F)cc21
Enquiry: Could you tell me which of A and B has the lower AUC(0-t) at 6 h reading? I would appreciate it if you answered with the label of your choice.
Return: A

[P] Cn1nc(N)c2cc(Cn3c(C(=O)O)c(-c4ccc[nH]c4=O)c4c5occc5c(F)cc43)c(F)cc21
[Q] Nc1cc(Cn2c(C(=O)O)c(-c3ccc[nH]c3=O)c3c4occc4c(F)cc32)c2ccccc2n1
Enquiry: Could you kindly indicate whether P or Q has the higher AUC(0-t) at 6 h value? I would appreciate it if you answered with the label of your choice.
Return: Q

[I] O=C(O)c1c(-c2ccc[nH]c2=O)c2c3occc3c(F)cc2n1Cc1ccc2nc[nH]c2c1
[II] O=C(O)c1c(-c2ccc[nH]c2=O)c2c3occc3c(F)cc2n1Cc1cc2cn[nH]c2cc1Cl
Enquiry: Could you tell me which of I and II has the lower AUC(0-t) at 6 h reading? I would appreciate it if you answered with the label of your choice.
Return: II
(II: 5.1 µM·h, I: 9.3 µM·h)

###

Test system: Rattus norvegicus
Assay: Prodrug conversion in Sprague-Dawley rat assessed as AUC (0 to 6 hrs) of 6-((6-Chloro-1H-benzo[d]imidazol-5-yl)methyl)-4-fluoro-8-(2-oxo-1,2-dihydropyridin-3-yl)-6H-furo[2,3-e]indole-7-carboxylic acid level at 10 mg/kg, po
Format: ADME, organism-based
Parameters: time < 6 hr, dose 10 mg/kg, route oral
Conditions: in vivo
parameter_measured: AUC (nM·h)

CC(CN(C)C)OC(=O)c1c(-c2ccc[nH]c2=O)c2c3occc3c(F)cc2n1Cc1cc2[nH]cnc2cc1Cl.O=C(O)C(F)(F)F (configuration not stated)	32600
COCCOC(=O)c1c(-c2ccc[nH]c2=O)c2c3occc3c(F)cc2n1Cc1cc2[nH]cnc2cc1Cl	1100
CC(OC(=O)c1c(-c2ccc[nH]c2=O)c2c3occc3c(F)cc2n1Cc1cc2[nH]cnc2cc1Cl)c1ccccc1 (configuration not stated)	200

[1] O=C([O-])c1c(-c2ccc[nH]c2=O)c2c3occc3c(F)cc2n1Cc1cc2[nH]cnc2cc1Cl.[Na+]
[2] CN(C)CCOC(=O)c1c(-c2ccc[nH]c2=O)c2c3occc3c(F)cc2n1Cc1cc2[nH]cnc2cc1Cl.O=C(O)C(F)(F)F
[3] O=C(O)C(F)(F)F.O=C(OCCN1CCOCC1)c1c(-c2ccc[nH]c2=O)c2c3occc3c(F)cc2n1Cc1cc2[nH]cnc2cc1Cl
[4] CN(C)CCCOC(=O)c1c(-c2ccc[nH]c2=O)c2c3occc3c(F)cc2n1Cc1cc2[nH]cnc2cc1Cl.O=C(O)C(F)(F)F
Enquiry: Rank ascending by AUC. Write the labels out in the order the request specifies.
Return: 4, 1, 3, 2

###

Assay: Oral bioavailability in Sprague-Dawley rat at 3 mg/kg
Format: ADME, organism-based
Conditions: in vivo
parameter_measured: bioavailability (%)
Kindly answer with a numeric value in %, unit omitted.

Enquiry: Give the measured bioavailability of NC(=O)c1ccc(F)c(Cn2c(C(=O)O)c(-c3ccc[nH]c3=O)c3c4occc4c(F)cc32)c1 .
Return: 1.5

###

Tested on: Hepatitis C virus
Test: Antiviral activity against HCV1b assessed as inhibition of viral replication
Assay type: functional, organism-based, Hepacivirus hominis
Conditions: genotype 1b
parameter_measured: EC50 (nM)

NC(=O)c1ccc(F)c(Cn2c(C(=O)O)c(-c3ccc[nH]c3=O)c3c4occc4c(F)cc32)c1	15

[a] O=C(O)c1c(-c2ccc[nH]c2=O)c2c3occc3cc(F)c2n1Cc1cc(F)ccc1F
[b] CN(C)CCOC(=O)c1c(-c2ccc[nH]c2=O)c2c3occc3c(F)cc2n1Cc1cc2c(N)n[nH]c2cc1F.O=C(O)C(F)(F)F
[c] Nc1n[nH]c2cc(Cn3c(C(=O)O)c(-c4ccc[nH]c4=O)c4c5occc5c(F)cc43)c(F)cc12
Enquiry: Thanks in advance: please rank these 3 entries by EC50, highest to lowest. Write the labels out in the order the request specifies.
Return: a, c, b
(a: 2600 nM, c: 12 nM, b: 4 nM)

###

Test system: Hepatitis C virus
Assay: Antiviral activity against HCV1b assessed as inhibition of viral replication
Format: functional, organism-based, Hepacivirus hominis
Settings: genotype 1b
pEC50: −log10 of the molar value.
parameter_measured: pEC50

Guide cases for pEC50, answers given:
CN(C)CCOC(=O)c1c(-c2ccc[nH]c2=O)c2c3occc3c(F)cc2n1Cc1cc2cn[nH]c2cc1F.O=C(O)C(F)(F)F	8.22
CN(C)CCOC(=O)c1c(-c2ccc[nH]c2=O)c2c3occc3c(F)cc2n1Cc1cc(N)nc2ccccc12.O=C(O)C(F)(F)F	8.15
O=C(O)c1c(-c2ccc[nH]c2=O)c2c3occc3c(F)cc2n1Cc1cc2[nH]cnc2cc1Cl	8.10

[1] O=C(O)c1c(-c2ccc[nH]c2=O)c2c3occc3c(F)cc2n1Cc1cc2c(=O)cc[nH]c2cc1F
[2] Cn1nc(N)c2cc(Cn3c(C(=O)O)c(-c4ccc[nH]c4=O)c4c5occc5c(F)cc43)c(F)cc21
Enquiry: Could you tell me which of 1 and 2 has the lower pEC50 reading? I would appreciate it if you answered with the label of your choice.
Return: 2

[A] CN(C)CCOC(=O)c1c(-c2ccc[nH]c2=O)c2c3occc3c(F)cc2n1Cc1cc2[nH]cnc2cc1Cl.O=C(O)C(F)(F)F
[B] Nc1cc(Cn2c(C(=O)O)c(-c3ccc[nH]c3=O)c3c4occc4c(F)cc32)c2ccccc2n1
Enquiry: Could you tell me which of A and B has the lower pEC50 reading? I would appreciate it if you answered with the label of your choice.
Return: A
(A: 7.89, B: 8.22)

[I] O=C(O)c1c(-c2ccc[nH]c2=O)c2c3occc3ccc2n1Cc1cc(F)ccc1F
[II] Nc1n[nH]c2cc(F)c(Cn3c(C(=O)O)c(-c4ccc[nH]c4=O)c4c5occc5c(F)cc43)cc12
[III] CN(C)CCOC(=O)c1c(-c2ccc[nH]c2=O)c2c3occc3c(F)cc2n1Cc1cc2[nH]cnc2cc1F.O=C(O)C(F)(F)F
[IV] O=C(O)c1c(-c2ccc[nH]c2=O)c2c3occc3c(F)cc2n1Cc1ccc2nc[nH]c2c1
Enquiry: Thanks in advance: please rank these 4 entries by pEC50, highest to lowest. Write the labels out in the order the request specifies.
Return: II, III, IV, I

[1] Cc1cc2[nH]ncc2cc1Cn1c(C(=O)O)c(-c2ccc[nH]c2=O)c2c3occc3c(F)cc21
[2] O=C(O)c1c(-c2ccc[nH]c2=O)c2c3occc3c(F)cc2n1Cc1cc2cn[nH]c2cc1F
Enquiry: Could you kindly indicate whether 1 or 2 has the higher pEC50 value? I would appreciate it if you answered with the label of your choice.
Return: 1

###

Experiment: Inhibition of HCV1b NS5B polymerase
Set-up: species or system Hepatitis C virus subtype 1b
parameter_measured: IC50 (nM)

Guide cases for IC50, answers given:
O=C(O)c1c(-c2ccc[nH]c2=O)c2c3occc3c(F)cc2n1Cc1cc2cn[nH]c2cc1F	3
O=C(O)c1c(-c2ccc[nH]c2=O)c2c3occc3c(F)cc2n1Cc1ccc2nc[nH]c2c1	5
Nc1n[nH]c2cc(Cn3c(C(=O)O)c(-c4ccc[nH]c4=O)c4c5occc5c(F)cc43)c(F)cc12	5

[I] O=C(O)c1c(-c2ccc[nH]c2=O)c2c3occc3ccc2n1Cc1cc(F)ccc1F
[II] O=C(O)c1c(-c2ccc[nH]c2=O)c2c3occc3c(F)cc2n1Cc1cc2[nH]cnc2cc1F
Enquiry: Could you kindly indicate whether I or II has the higher IC50 value? I would appreciate it if you answered with the label of your choice.
Return: I
(I: 31 nM, II: 3 nM)

[P] Cn1nc(N)c2cc(Cn3c(C(=O)O)c(-c4ccc[nH]c4=O)c4c5occc5c(F)cc43)c(F)cc21
[Q] Nc1n[nH]c2cc(F)c(Cn3c(C(=O)O)c(-c4ccc[nH]c4=O)c4c5occc5c(F)cc43)cc12
Enquiry: Could you tell me which of P and Q has the lower IC50 reading? I would appreciate it if you answered with the label of your choice.
Return: Q
